# TARGET OR SYSTEM: T1, Human PD-1 (ACROBiosystems, Inc., Catalog No. PD1-H5221) (human, UniProt Q15116 25-167)
# T1 construct: Bought recombinant protein; also called huPD1-His; PD-1-his; not shown: His tag of the bought protein (huPD1-His)
# T1 sequence (Q15116 25-167 limits assumed): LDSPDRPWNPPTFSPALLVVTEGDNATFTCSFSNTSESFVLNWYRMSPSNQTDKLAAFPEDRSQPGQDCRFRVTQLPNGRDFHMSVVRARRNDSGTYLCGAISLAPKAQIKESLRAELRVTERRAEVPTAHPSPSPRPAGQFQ
# ASSAY REMARKS: SPR (Biacore), scFv captured on anti-FLAG, PD-1 as analyte
PARAMETER: kon (M⁻¹ s⁻¹)
One number for each entry, in M⁻¹ s⁻¹.

Hi, could you look up kon for each item in my list?
1. h1E9-4 (VH3-7-Vκ1-9) scFv (scFv, Whole scFv chain with FlagHis tag) scFv: MEVQLVESGGGLVQPGGSLRLSCAASGFTFSTFGMSWVRQAPGKGLEWVATISGGGSDTYYPDSVQGRFTISRDNAKNSLYLQMNSLRAEDTAVYYCARQGYDVYSWFAYWGQGTLVTVSSGGGGSGGGGSGGGGSDIQLTQSPSFLSASVGDRVTITCRASESVDNSGISFMSWYQQKPGKAPKLLIYTASNQGSGVPSRFSGSGSGTEFTLTISSLQPEDFATYYCQQSKEVPWTFGQGTKVEIKGSGDYKDDDDKGSGHHHHHH
2. h1E9-2 (VH3-21-Vκ3-11) scFv (scFv, Whole scFv chain with FlagHis tag) scFv: MEVQLVESGGGLVKPGGSLRLSCAASGFTFSTFGMSWVRQAPGKGLEWVSTISGGGSDTYYPDSVQGRFTISRDNAKNSLYLQMNSLRAEDTAVYYCARQGYDVYSWFAYWGQGTLVTVSSGGGGSGGGGSGGGGSEIVLTQSPATLSLSPGERATLSCRASESVDNSGISFMSWYQQKPGQAPRLLIYTASNQGSGIPARFSGSGSGTDFTLTISSLEPEDFAVYYCQQSKEVPWTFGQGTKVEIKGSGDYKDDDDKGSGHHHHHH
3. h4B10-2 (VH3-15-Vκ3-20) scFv (scFv, Whole scFv chain with FlagHis tag) scFv: MEVQLVESGGGLVKPGGSLRLSCAASGFTFSTYGMSWVRQAPGKGLEWVATISGGGSNTYYSDSVKGRFTISRDDSKNTLYLQMNSLKTEDTAVYYCARQRDSAWFASWGQGTLVTVSSGGGGSGGGGSGGGGSEIVLTQSPGTLSLSPGERATLSCRASENVDDYGVSFMNWYQQKPGQAPRLLIYPASNQGSGIPDRFSGSGSGTDFTLTISRLEPEDFAVYYCQQSKEVPWTFGQGTKVEIKGSGDYKDDDDKGSGHHHHHH
4. m4B10 scFv (scFv, Mouse single-chain antibody, whole chain with FlagHis tag) scFv: MEVKLVESGGGLVKPGGSLKLSCAASGFTFSTYGMSWVRQTPEKRLQWVATISGGGSNTYYSDSVKGRFTISRDNAKNNLYLQMSSLRSEDTALYYCARQRDSAWFASWGQGTLVTVSAGGGGSGGGGSGGGGSDIVLTQSPASLAVSLGQRATISCRASENVDDYGVSFMNWFQQKPGQPPKLLIYPASNQGSGVPARFSGSGSGTDFSLNIHPMEEDDTAMYFCQQSKEVPWTFGGGTKLEIKGSGDYKDDDDKGSGHHHHHH
5. h1E9-5 (VH3-7-Vκ3-11) scFv (scFv, Whole scFv chain with FlagHis tag) scFv: MEVQLVESGGGLVQPGGSLRLSCAASGFTFSTFGMSWVRQAPGKGLEWVATISGGGSDTYYPDSVQGRFTISRDNAKNSLYLQMNSLRAEDTAVYYCARQGYDVYSWFAYWGQGTLVTVSSGGGGSGGGGSGGGGSEIVLTQSPATLSLSPGERATLSCRASESVDNSGISFMSWYQQKPGQAPRLLIYTASNQGSGIPARFSGSGSGTDFTLTISSLEPEDFAVYYCQQSKEVPWTFGQGTKVEIKGSGDYKDDDDKGSGHHHHHH

Ans:
[185000, 47400, "1.16e+06", 81200, 200000]
